# ASSAY_NAME: Half life in CD-1 mouse liver microsomes at 1 uM preincubated for 5 mins followed by NADPH addition measured up to 45 mins by LC-MS/MS analysis
# Format: ADME, microsome
# TEST_PARAMETERS: 0.75 h
REPORTED_PROPERTY: t1/2 (h)
Numbers only; they are read as h.

{"columns": ["LINE_NOTATION", "VALUE"],
 "data": [
  ["O=C(N[C@@H](Cn1ccnc1)c1ccc(Cl)cc1Cl)c1ccc(-c2nnc(-c3ccc(C(F)(F)F)c(F)c3)o2)cc1", 1.53],
  ["O=C(N[C@@H](Cn1ccnc1)c1ccc(Cl)cc1Cl)c1ccc(-c2nnc(-c3ccc(-c4ccccn4)cc3F)o2)cc1", 2.48],
  ["O=C(N[C@@H](Cn1ccnc1)c1ccc(Cl)cc1Cl)c1ccc(-c2nnc(-c3cccc(-c4ccccn4)c3)o2)cc1", 0.6],
  ["O=C(N[C@@H](Cn1ccnc1)c1ccc(Cl)cc1Cl)c1ccc(-c2nnc(-c3ccccc3)o2)cc1", 1.03],
  ["O=C(N[C@@H](Cn1ccnc1)c1ccc(Cl)cc1Cl)c1ccc(-c2nnc(-c3ccc(F)c(F)c3)o2)cc1", 1.63]
]}

Q: Look up t1/2 of "CS(=O)(=O)c1ccc(-c2nnc(-c3ccc(C(=O)N[C@@H](Cn4ccnc4)c4ccc(Cl)cc4Cl)cc3)o2)cc1Cl" and report it.
Ans: 1.62

Q: Look up t1/2 of "O=C(N[C@@H](Cn1ccnc1)c1ccc(Cl)cc1Cl)c1ccc(-c2nnc(-c3cc(F)cc(-c4ccccn4)c3)o2)cc1" and report it.
Ans: 1.65

Q: Look up t1/2 of "O=C(N[C@@H](Cn1ccnc1)c1ccc(Cl)cc1Cl)c1ccc(-c2nnc(-c3ccc(-c4ccccn4)cc3)o2)cc1" and report it.
Ans: 0.95

Q: Look up t1/2 of "O=C(N[C@@H](Cn1ccnc1)c1ccc(Cl)cc1Cl)c1ccc(-c2nnc(-c3cccc(Br)c3)o2)cc1" and report it.
Ans: 0.717

Q: Look up t1/2 of "O=C(N[C@@H](Cn1ccnc1)c1ccc(Cl)cc1Cl)c1ccc(-c2nnc(-c3ccc(Cl)c(Cl)c3)o2)cc1" and report it.
Ans: 0.85

Q: Look up t1/2 of "O=C(N[C@@H](Cn1ccnc1)c1ccc(Cl)cc1Cl)c1ccc(-c2nnc(-c3cc(-c4ccccn4)ccc3F)o2)cc1" and report it.
Ans: 0.383

Q: Look up t1/2 of "O=C(N[C@@H](Cn1ccnc1)c1ccc(Cl)cc1Cl)c1ccc(-c2nnc(-c3cc(F)cc(-c4ncncc4F)c3)o2)cc1" and report it.
Ans: 0.867

Q: Look up t1/2 of "O=C(N[C@@H](Cn1ccnc1)c1ccc(Cl)cc1Cl)c1ccc(-c2nnc(-c3cc(F)cc(OCC(F)(F)F)c3)o2)cc1" and report it.
Ans: 1.08

Q: Look up t1/2 of "O=C(N[C@@H](Cn1ccnc1)c1ccc(Cl)cc1Cl)c1ccc(-c2nnc(-c3ccc(OCC(F)(F)F)cc3F)o2)cc1" and report it.
Ans: 1.03

====

# TARGET_UNDER_TEST: Lanosterol 14-alpha demethylase (Candida albicans (strain SC5314 / ATCC MYA-2876) (Yeast), UniProt P10613)
# Sequence (P10613 whole entry): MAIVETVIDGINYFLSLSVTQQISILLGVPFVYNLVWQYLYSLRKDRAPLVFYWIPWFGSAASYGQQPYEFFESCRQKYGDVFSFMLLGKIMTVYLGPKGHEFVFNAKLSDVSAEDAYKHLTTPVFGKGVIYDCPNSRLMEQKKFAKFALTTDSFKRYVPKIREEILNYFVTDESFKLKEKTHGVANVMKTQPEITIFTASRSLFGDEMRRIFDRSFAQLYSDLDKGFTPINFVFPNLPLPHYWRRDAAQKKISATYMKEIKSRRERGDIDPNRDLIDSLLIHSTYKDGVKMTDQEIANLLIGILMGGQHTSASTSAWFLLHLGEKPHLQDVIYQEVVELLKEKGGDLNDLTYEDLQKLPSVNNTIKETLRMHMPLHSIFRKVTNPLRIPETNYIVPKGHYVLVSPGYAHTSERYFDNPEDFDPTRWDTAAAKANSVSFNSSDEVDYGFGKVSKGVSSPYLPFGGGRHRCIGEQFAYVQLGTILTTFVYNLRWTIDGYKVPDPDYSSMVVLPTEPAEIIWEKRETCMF
# ASSAY_NAME: Inhibition of Candida albicans CYP51 assessed as reduction in [3-3H]lanosterol 14alpha-demethylation at 0.75 uM preincubated for 60 secs followed by NADPH addition measured after 60 mins by RP-HPLC analysis relative to control
# TEST_PARAMETERS: 1 h
Would you please tag the item condition met when its inhibition at 0.75 µM is 80% or above, and condition not met when it is below?

{"columns": ["LINE_NOTATION", "ASSIGNED_LABEL"],
 "data": [
  ["O=C(N[C@@H](Cn1ccnc1)c1ccc(Cl)cc1Cl)c1ccc(-c2nnc(-c3ccc(OCC(F)(F)F)cc3F)o2)cc1", "condition met"],
  ["O=C(N[C@@H](Cn1ccnc1)c1ccc(Cl)cc1Cl)c1ccc(-c2nnc(-c3ccccc3)o2)cc1", "condition not met"],
  ["CS(=O)(=O)c1ccc(-c2nnc(-c3ccc(C(=O)N[C@@H](Cn4ccnc4)c4ccc(Cl)cc4Cl)cc3)o2)cc1Cl", "condition not met"],
  ["O=C(N[C@@H](Cn1ccnc1)c1ccc(Cl)cc1Cl)c1ccc(-c2nnc(-c3ccc(-c4ccccn4)cc3F)o2)cc1", "condition not met"],
  ["O=C(N[C@@H](Cn1ccnc1)c1ccc(Cl)cc1Cl)c1ccc(-c2nnc(-c3cc(-c4ccccn4)ccc3F)o2)cc1", "condition met"],
  ["O=C(N[C@@H](Cn1ccnc1)c1ccc(Cl)cc1Cl)c1ccc(-c2nnc(-c3cccc(-c4ccccn4)c3)o2)cc1", "condition not met"],
  ["O=C(N[C@@H](Cn1ccnc1)c1ccc(Cl)cc1Cl)c1ccc(-c2nnc(-c3cc(F)cc(-c4ccccn4)c3)o2)cc1", "condition met"],
  ["O=C(N[C@@H](Cn1ccnc1)c1ccc(Cl)cc1Cl)c1ccc(-c2nnc(-c3ccc(-c4ccccn4)cc3)o2)cc1", "condition not met"]
]}

With those in mind, consider the next molecule.
Q: # bool: inhibition at 0.75 µM of "O=C(N[C@@H](Cn1ccnc1)c1ccc(Cl)cc1Cl)c1ccc(-c2nnc(-c3ccc(C(F)(F)F)c(F)c3)o2)cc1" >= 80%
Ans: condition met
